- Tested on: TK-10 renal
- procedure-text: NCI tumour cell line growth inhibition, 48 h; in the data active means GI50 below about 0.43 µM; inactive means the rest
Where a SMILES comes first, the peptide text is derived from it. [ ]: non-standard residue; d: D form. NMeY = CN[C@@H](Cc1ccc(O)cc1)C(=O)O; dNMeF = CN[C@H](Cc1ccccc1)C(=O)O; Sar = CNCC(=O)O
Classes used: active, inactive

compound: O=C(O)C[O][Sb][O]CC(=O)O
qualitative-label: inactive
//
compound: O=c1oc2ccc(Cl)cc2c(=O)n1-c1cc(C(F)(F)F)cc(C(F)(F)F)c1
qualitative-label: active
//
compound: C/C(=N\NC(=O)c1ccccc1O)c1cccc(/C(C)=N/NC(=O)c2ccccc2O)n1
qualitative-label: inactive
//
compound: Nc1c(C(=O)c2cccc(CCC3(O)CCCC3)c2)cnn1-c1ccc(F)cc1
qualitative-label: inactive
//
compound: C#C[C@@]1(O)[C@@H](CO)O[C@@H](n2ccc3c(N)ncnc32)[C@@H]1O
qualitative-label: inactive
//
compound: Nc1ccn(C2CC(O)C(CO)O2)c(=O)n1 (stereo not given)
qualitative-label: inactive
//
compound: CN1CCN(Cc2ccc(NC(=O)c3nc4ccc5[nH]ncc5c4c4c3CCC4)cc2C(F)(F)F)CC1
qualitative-label: inactive
//
compound: COc1ccc2c(c1)sc1nc(-c3ccccc3)c(-c3ccc(O)c(OC)c3)n12
qualitative-label: inactive
//
compound: CCC[CH2][Sn]([CH2]CCC)([O]C(=O)c1cc(OC)c(OC)cc1OC)[O]C(=O)c1cc(OC)c(OC)cc1OC
qualitative-label: inactive
//
compound: CC[C@H](C)[C@@H]1NC(=O)[C@H](Cc2ccc(O)cc2)N(C)C(=O)[C@H](Cc2ccccc2)NC(=O)CN(C)C(=O)[C@@H]2CCCN2C(=O)[C@@H](Cc2ccccc2)N(C)C(=O)[C@H](CC(C)C)NC1=O (cyclo(F[NMeY]IL[dNMeF]P[Sar]))
qualitative-label: inactive
//
compound: CCC[CH2][Ge]([CH2]CCC)([CH2]CCC)[O]C(=O)C(OC)c1ccccc1 (stereo not given)
qualitative-label: inactive
//
compound: N#CSCc1c(Cl)cccc1Cl
qualitative-label: inactive
//
compound: COc1cc2ccnc3c2c(c1OC)-c1ccc(=O)ccc1-3
qualitative-label: inactive
//
compound: CC(=O)OC1CCC2(C)C(CCC3C4CC=C(C(C)=O)C4(C)OC(=O)CC32)C1 (stereo not given)
qualitative-label: inactive
//
compound: CN(C)C(=O)c1cc2cnc(Nc3ccc(-c4csc5c(=O)cc(N6CCNCC6)oc45)cc3)nc2n1C1CCCC1
qualitative-label: inactive
//
compound: COc1c(NC(=O)CC(C)=O)[c]([Hg][O]C(C)=O)c(OC)c(Cl)[c]1[Hg][O]C(C)=O
qualitative-label: inactive
//
compound: O=C(Nc1ccccc1)NS(=O)(=O)c1ccc(N2N=C3c4ccccc4CC3C2c2ccccn2)cc1 (stereo not given)
qualitative-label: inactive
//
compound: C=CC(=O)N1CCC([C@@H]2CCNc3c(C(N)=O)c(-c4ccc(Oc5ccccc5)cc4)nn32)CC1
qualitative-label: active
//
compound: ClC1=NC(Cl)C(Cl)=N/C1=N\c1ncn[nH]1 (stereo not given)
qualitative-label: inactive
//
compound: CC1(C)CC(OCCCC[P+](c2ccccc2)(c2ccccc2)c2ccccc2)CC(C)(C)N1O
qualitative-label: active

###

- Tested on: OVCAR-3 ovarian
- procedure-text: NCI tumour cell line growth inhibition, 48 h

molecule: Cc1cc2c(cc1C)C(=O)C1(C2)Cc2c(ccc(C)c2C)C1=O (centres undefined)
study-target: OVCAR-3 ovarian
TGI: > 100 µM
--
molecule: O=C(O)CCCSc1nc2ccccc2s1
study-target: OVCAR-3 ovarian
TGI: > 100 µM
--
molecule: CNNC(=N\S(=O)(=O)c1cc(C(=O)Nc2ccc(Cl)cc2)c(Cl)cc1SCc1ccccc1)/N=C/c1ccc([N+](=O)[O-])s1
study-target: OVCAR-3 ovarian
TGI: > 100 µM
--
molecule: CCOC(CI)O[C@@H]1C=C[C@H](OC(C)=O)C1 (some centres undefined)
study-target: OVCAR-3 ovarian
TGI: > 100 µM
--
molecule: O=C1C[C@@H](Sc2ccccc2)C2(OCCO2)[C@H]2ON3CCC[C@@H]3[C@@H]12
study-target: OVCAR-3 ovarian
TGI: 9.15 µM
--
molecule: CCC[CH2][Ge]([CH2]CCC)([CH2]CCC)[O]C(=O)C(O)c1ccccc1 (centres undefined)
study-target: OVCAR-3 ovarian
TGI: 18.4 µM
--
molecule: C[C@]12CC[C@H](O)C=C1CC[C@@H]1[C@@H]2CC[C@]2(C)C(=N/O)/C(=C/c3ccncc3)C[C@@H]12
study-target: OVCAR-3 ovarian
TGI: 19.1 µM
--
molecule: Cc1ccccc1NC(=O)C1C(=O)N(c2ccccc2C)C(=O)/C1=N\N (centres undefined)
study-target: OVCAR-3 ovarian
TGI: > 100 µM
--
molecule: c1ccc2sc(SCN(C3CCCCC3)C3CCCCC3)nc2c1
study-target: OVCAR-3 ovarian
TGI: > 100 µM
--
molecule: COc1cc2c(cc1Oc1ccc(OC)c3c1CC1c4c(cc(OC)c(OC)c4-3)CCN1C)CC1c3c(cc(OC)c(OC)c3-2)CCN1C (centres undefined)
study-target: OVCAR-3 ovarian
TGI: 14.9 µM
--
molecule: O=Cc1ccc(Oc2c3ccccc3nc3occc23)cc1
study-target: OVCAR-3 ovarian
TGI: 11.3 µM
--
molecule: Nc1ccn(C2CC(O)C(CO)O2)c(=O)n1 (centres undefined)
study-target: OVCAR-3 ovarian
TGI: > 5000 µM
--
molecule: COc1ccc2[nH]c(=O)c(/C=C/C(=O)/C=C/c3ccc(O)c(OC)c3)cc2c1
study-target: OVCAR-3 ovarian
TGI: 2.55 µM
--
molecule: COc1cc(S(=O)(=O)Nc2nc(-c3ccc(N)cc3)cs2)ccc1Cl
study-target: OVCAR-3 ovarian
TGI: > 100 µM
--
molecule: COc1c(Cl)cc(S(=O)O)cc1Cl
study-target: OVCAR-3 ovarian
TGI: > 100 µM
--
molecule: Cc1ccc2c(Nc3cccc(Cl)c3F)ncc(NC(=O)c3csc4c(N)ncnc34)c2c1
study-target: OVCAR-3 ovarian
TGI: > 100 µM
--
molecule: O=c1oc2ccc(Cl)cc2c(=O)n1-c1cc(C(F)(F)F)cc(C(F)(F)F)c1
study-target: OVCAR-3 ovarian
TGI: 10.7 µM
--
molecule: CSCCCNC(=O)c1csc(-c2csc(CCN)n2)n1
study-target: OVCAR-3 ovarian
TGI: > 100 µM
--
molecule: NC(=S)NNC(=O)CCC(=O)Nc1ccc(Cl)cc1Cl
study-target: OVCAR-3 ovarian
TGI: > 100 µM
--
molecule: CC(C)C1SCc2nc3ccccc3n21 (centres undefined)
study-target: OVCAR-3 ovarian
TGI: > 100 µM
--
molecule: S=C(N/N=C(/c1ccccc1)c1ccccn1)Nc1ccc(Cl)cc1
study-target: OVCAR-3 ovarian
TGI: 11.6 µM
--
molecule: COC(=O)[C@@H]1C2OC(C)(C)OC2CN1C(=O)OCc1ccccc1 (some centres undefined)
study-target: OVCAR-3 ovarian
TGI: > 100 µM
--
molecule: COc1ccc(C2CC(c3ccc4ccccc4c3O)=NN2C(C)=O)cc1OC (centres undefined)
study-target: OVCAR-3 ovarian
TGI: > 100 µM
--
molecule: CCOC(=O)N1N=NC2C3OC(C[C@@]3(C#N)OC(C)=O)[C@H]21 (some centres undefined)
study-target: OVCAR-3 ovarian
TGI: > 100 µM

These entries and their values trace back to PubChem BioAssay (NCI).
